Test system: NCI-H1819
Experiment: Cell viability (MTT) assay
Type: cell-based
Conditions: NCI-H1819, origin LA, Td 51 h, drug for 2-3 doubling times
quantityMeasured: IC50 (nM)
The answer is to be given in nM; state only the numeric part.

Notebook: COc1ccc(Oc2cc(NCCC(F)(F)F)c3ncc(-c4ccc(C(=O)NC5CC5)c(C)c4)n3n2)c(F)c1F , IC50 read as 2.6
